Recorded MIC Enterococcus faecalis (GC 2691) for the following molecules
tested on: Enterococcus sp.; experiment: in vitro antibacterial evaluation, MIC by broth dilution; type: cell-based; conditions: broth dilution, 18 hours at 35° C.
Answer with a number only, understood to be in µg/mL.

Consider the reported MIC Enterococcus faecalis (GC 2691) for these molecules:
>  <Molecule>
CC(c1ccc(Cl)cc1)C1NC(=O)CNC(=O)C(CO)NC(=O)C(C(O)C2CNC(=N)N2C2OC(CO)C(O)C(O)C2O)NC(=O)C(C(O)C2CNC(=N)N2)NC(=O)C(Cc2ccc(OC3OC(CO)C(OC4OC5COC(c6ccccc6)OC5C(O)C4O)C(O)C3O)cc2)NC1=O (stereo not shown) [Example 195]

>  <Result number>
0.5

$$$$
>  <Molecule>
CC(C1CCCCC1)C1NC(=O)CNC(=O)C(CO)NC(=O)C(C(O)C2CNC(=N)N2C2OC(CO)C(O)C(O)C2O)NC(=O)C(C(O)C2CNC(=N)N2)NC(=O)C(Cc2ccc(OC3OC(CO)C(OC4OC5COC(c6ccccc6)OC5C(O)C4O)C(O)C3O)cc2)NC1=O (stereo not shown) [Example 201]

>  <Result number>
1

$$$$

Below: the item to evaluate.
INPUT: Give the reported MIC Enterococcus faecalis (GC 2691) for this molecule. CC(c1ccccc1)C1NC(=O)CNC(=O)C(CO)NC(=O)C(C(O)C2CN(Cc3ccc4ccccc4c3)C(=N)N2C2OC(CO)C(O)C(O)C2O)NC(=O)C(C(O)C2CNC(=N)N2)NC(=O)C(Cc2ccc(OC3OC(CO)C(OC4OC5COC6(OC5C(O)C4O)C4CC5CC(C4)CC6C5)C(O)C3O)cc2)NC1=O (stereo not shown) [Example 78]
OUTPUT: 16

====

system: Staphylococcus sp.; assay: in vitro antibacterial evaluation, MIC by broth dilution; assay type: cell-based; settings: strain ATCC 29213; broth dilution, 18 hours at 35° C.
Numbered stars: 1 amine (or outer) side, 2 acyl side, 3 side chain; on linkers, the order of the positions; unused ones are H or OH. Square brackets hold non-standard residues; d marks the D form. Peptide text beside a SMILES is read from it. * marks the point of attachment. ξ: configuration not given here. X1 = N=C1NCC(C(O)C(N[*:1])C(=O)[*:2])N1C1OC(CO)C(O)C(O)C1O; ξEnduracididine(βξ-OH,4'ξ) = N=C1NCC(C(O)C(N)C(=O)O)N1; X2 = OCC1OC(OC2C(CO)OC(*)C(O)C2O)C(O)C(O)C1O; ξCha(3ξ-Me) = CC(C1CCCCC1)C(N)C(=O)O
Property: MIC Staphylococcus aureus (ATCC 29213); scope: individual compounds
A complete answer gives the number and then names the unit.

Past entries and their recorded results:
>  <Compound>
CC(C1CCCCC1)C1NC(=O)CNC(=O)C(CO)NC(=O)C(C(O)C2CNC(=N)N2C2OC(CO)C(O)C(O)C2O)NC(=O)C(C(O)C2CNC(=N)N2)NC(=O)C(Cc2ccc(OC3OC(CO)C(OC4OC(CO)C(O)C(O)C4O)C(O)C3O)cc2)NC1=O (stereo not drawn) [Example 51] (cyclo(G[ξCha(3ξ-Me)]Y(X2)[ξEnduracididine(βξ-OH,4'ξ)][X1]S); configuration not given here)

>  <Test target>
Staphylococcus sp.

>  <Result>
32 µg/mL

$$$$
>  <Compound>
N=C1NCC(C(O)C2NC(=O)C(Cc3ccc(OC4OC(CO)C(OC5OC6COC(Cc7ccccc7)OC6C(O)C5O)C(O)C4O)cc3)NC(=O)C(CC3CCCCC3)NC(=O)CNC(=O)C(CO)NC(=O)C(C(O)C3CNC(=N)N3C3OC(CO)C(O)C(O)C3O)NC2=O)N1 (stereo not drawn)

>  <Test target>
Staphylococcus sp.

>  <Result>
1 µg/mL

$$$$

Now look at this one.
INPUT: Please look at this compound and report its MIC Staphylococcus aureus (ATCC 29213): CC(c1ccccc1)C1NC(=O)CNC(=O)C(CO)NC(=O)C(C(O)C2CNC(=N)N2C2OC(CO)C(O)C(O)C2O)NC(=O)C(C(O)C2CNC(=N)N2)NC(=O)C(Cc2ccc(OC3OC(CO)C(OC4OC5COC(C)(c6ccc(F)cc6)OC5C(O)C4O)C(O)C3O)cc2)NC1=O (stereo not drawn)
OUTPUT: 2 µg/mL
